tested on: Malme-3M; experiment: Growth inhibition of human Malme-3M cells at 10 uM incubated for 48 hrs by sulforhodamine B assay relative to control; assay type: functional; details: read-out: GI
Catalogue of inhibition of growth at 10 µM values
Hi! Could you send only the number? It should be in %, unit omitted.

Use these answered entries as a reference point.
> print(dat)
                               smiles.input  obs.value
1  NS(=O)(=O)c1ccc(NCC(=O)Nc2ccc(-c3nc4ccccc4s3)cc2)cc1       46.4
2   O=C(CN1CCOCC1)Nc1ccc(-c2nc3ccccc3s2)cc1        -17
3  Cc1cc(NCC(=O)Nc2ccc(-c3nc4ccccc4s3)cc2)no1       10.5
4  Cc1ccc(NCC(=O)Nc2ccc(-c3nc4ccccc4s3)cc2)cc1      -21.5
5  O=C(CNc1ccc(Cl)cc1)Nc1ccc(-c2nc3ccccc3s2)cc1        130

Return reported inhibition of growth at 10 µM; argument: O=C(Cn1cnc2ccccc21)Nc1ccc(-c2nc3ccccc3s2)cc1
18.9

Return reported inhibition of growth at 10 µM; argument: O=C(CN1C(=O)C(=O)c2ccccc21)Nc1ccc(-c2nc3ccccc3s2)cc1
-2.34

Return reported inhibition of growth at 10 µM; argument: O=C(CN1CCCCC1)Nc1ccc(-c2nc3ccccc3s2)cc1
-9.17

Return reported inhibition of growth at 10 µM; argument: O=C(CNc1ccccc1)Nc1ccc(-c2nc3ccccc3s2)cc1
4.9

Return reported inhibition of growth at 10 µM; argument: COc1ccc(NCC(=O)Nc2ccc(-c3nc4ccccc4s3)cc2)cc1
-26

Return reported inhibition of growth at 10 µM; argument: O=C(Cn1ccc2ccccc21)Nc1ccc(-c2nc3ccccc3s2)cc1
-8.06

Return reported inhibition of growth at 10 µM; argument: O=C(CNC1CCCCC1)Nc1ccc(-c2nc3ccccc3s2)cc1
-5.44

Return reported inhibition of growth at 10 µM; argument: O=C(CNCc1ccccc1)Nc1ccc(-c2nc3ccccc3s2)cc1
-6.22

---

test system: HOP-62; experiment: Growth inhibition of human HOP-62 cells at 10 uM incubated for 48 hrs by sulforhodamine B assay relative to control; assay type: functional; conditions: read-out: GI
outcome-measure: inhibition of growth at 10 µM (%)
Hi! Could you send only the number? It should be in %, unit omitted.

Use these answered entries as a reference point.
> print(dat)
                               smiles.input                outcome.measure  endpoint.unit  obs.value
1  O=C(CNC1CCCCC1)Nc1ccc(-c2nc3ccccc3s2)cc1  inhibition of growth at 10 µM              %       14.8
2   O=C(CN1CCCCC1)Nc1ccc(-c2nc3ccccc3s2)cc1  inhibition of growth at 10 µM              %       7.87

Return reported inhibition of growth at 10 µM; argument: O=C(CN1C(=O)C(=O)c2ccccc21)Nc1ccc(-c2nc3ccccc3s2)cc1
-12.7

Return reported inhibition of growth at 10 µM; argument: O=C(CNc1ccccc1)Nc1ccc(-c2nc3ccccc3s2)cc1
-12

Return reported inhibition of growth at 10 µM; argument: O=C(Cn1ccnc1)Nc1ccc(-c2nc3ccccc3s2)cc1
16.2

Return reported inhibition of growth at 10 µM; argument: CN1CCN(CC(=O)Nc2ccc(-c3nc4ccccc4s3)cc2)CC1
12.7
